# protocol details: Extended room temperature storage of treprostinil monohydrate lot D-1007-089 (18-month stability summary: water content, assay/impurity profile)
# Format: physicochemical
# condition parameters: 12 Months, Container 2 (covered with Kimwipe), room temperature
property: Total impurities (%)
The reply should contain only the number, in %.

Noted for CCCCC[C@H](O)CC[C@@H]1[C@H]2Cc3cccc(OCC(=O)O)c3C[C@H]2C[C@H]1O [TREPROSTINIL Lot# D-1007-089, treprostinil monohydrate] : its Total impurities reads 0.05

---

# protocol details: Extended room temperature storage of treprostinil monohydrate lot D-1007-089 (18-month stability summary: water content, assay/impurity profile)
# Assay type: physicochemical
# condition parameters: 18 Month, Container 2 (covered with Kimwipe), room temperature
# Method: 2. UT Stability Summary (18-month) for monohydrate lot # D-1007-089 A 3.4-kg sample of treprostinil diethanolamine salt was dissolved in 36 L of sterile water, 60 L of ethyl acetate and 3.6 L of 3 M HCl were added and the mixture stirred. The layers were separated and the aqueous layer was extracted thrice with 20-L portions of ethyl acetate. […]
property: 750W93 (%)
The reply should contain only the number, in %.

Noted for CCCCC[C@H](O)CC[C@@H]1[C@H]2Cc3cccc(OCC(=O)O)c3C[C@H]2C[C@H]1O [TREPROSTINIL Lot# D-1007-089, treprostinil monohydrate] : its 750W93 reads 0.09
